Biological target: human recombinant WT BTK (Homo sapiens, UniProt Q06187)
Sequence (Q06187 whole entry): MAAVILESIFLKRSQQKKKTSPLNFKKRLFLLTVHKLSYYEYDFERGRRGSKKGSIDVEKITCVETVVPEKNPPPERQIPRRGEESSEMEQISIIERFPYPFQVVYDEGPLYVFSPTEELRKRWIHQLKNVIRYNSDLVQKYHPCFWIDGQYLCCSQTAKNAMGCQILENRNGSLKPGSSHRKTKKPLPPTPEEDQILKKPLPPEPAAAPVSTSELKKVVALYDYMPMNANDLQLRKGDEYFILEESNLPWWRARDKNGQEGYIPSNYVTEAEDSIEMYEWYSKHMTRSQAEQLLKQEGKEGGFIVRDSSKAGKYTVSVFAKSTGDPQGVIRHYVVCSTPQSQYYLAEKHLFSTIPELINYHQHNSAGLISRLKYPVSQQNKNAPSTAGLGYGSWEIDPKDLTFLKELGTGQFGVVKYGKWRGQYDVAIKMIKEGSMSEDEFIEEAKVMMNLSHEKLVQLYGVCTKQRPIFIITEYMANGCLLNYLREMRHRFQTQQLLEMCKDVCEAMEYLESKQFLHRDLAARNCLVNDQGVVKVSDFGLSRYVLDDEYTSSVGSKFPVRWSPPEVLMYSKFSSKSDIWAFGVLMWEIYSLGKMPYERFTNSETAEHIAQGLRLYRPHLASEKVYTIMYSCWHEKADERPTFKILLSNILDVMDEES
Assay: Caliper-based biochemical enzymatic assay (IC50) against WT BTK
Conditions: WT BTK 0.5 nM, ATP 16 μM, peptide substrate 1 μM, room temperature 3 h
Description: The reaction was then terminated with EDTA, final concentration 20 mM and the phosphorylated reaction product was quantified on a Caliper Desktop Profiler (Caliper LabChip 3000). Percent inhibition was calculated for each compound dilution and the concentration that produced 50% inhibition was calculated.
measured.attribute: IC50 (nM)
Could you give me the number in nM? Just the number is fine.

Query block: # get_value(readout='IC50', item= C=CC(=O)Nc1cc(Nc2nc(-c3ccnc(NC(=O)c4ccc(C(C)(C)C)cc4)c3CO)cn(C)c2=O)ccc1N1CCN(C2CCOCC2)C[C@@H]1C [Example 1] )
Result block: 0.64
